Assay: Inhibition of HCV genotype 1b Con1 NS5A expressed in HuH7 cell infected HCV genotype 2b assessed as decrease in viral replication after 3 days by luciferase reporter gene assay
property_label: EC50 (pM)
Give the number; pM is assumed, so skip it.

Past entries and their recorded results:
chemical_structure: COC(=O)N[C@H](C(=O)N1CCC[C@H]1c1nc2cc(F)c([C@H]3CC[C@H](c4cc5[nH]c([C@@H]6CCCN6C(=O)[C@@H](NC(=O)OC)C(C)C)nc5cc4F)N3c3cc(F)c(N4CCC(c5ccccc5)CC4)c(F)c3)cc2[nH]1)C(C)C
EC50 / pM: 3
--
chemical_structure: COC(=O)N[C@H](C(=O)N1CCC[C@H]1c1nc2ccc([C@H]3CC[C@H](c4ccc5nc([C@@H]6CCCN6C(=O)[C@@H](NC(=O)OC)C(C)C)[nH]c5c4)N3c3ccc(-c4ccccc4)cc3)cc2[nH]1)C(C)C
EC50 / pM: 9
--
chemical_structure: COC(=O)N[C@H](C(=O)N1CCC[C@H]1c1nc2ccc([C@H]3CC[C@H](c4ccc5nc([C@@H]6CCCN6C(=O)[C@@H](NC(=O)OC)C(C)C)[nH]c5c4)N3c3ccc(C4CCCCC4)cc3)cc2[nH]1)C(C)C
EC50 / pM: 7
--
chemical_structure: COC(=O)N[C@H](C(=O)N1CCC[C@H]1c1nc2ccc([C@H]3CC[C@H](c4ccc5nc([C@@H]6CCCN6C(=O)[C@@H](NC(=O)OC)C(C)C)[nH]c5c4)N3c3ccc(N4CCOCC4)c(F)c3)cc2[nH]1)C(C)C
EC50 / pM: 229
--
chemical_structure: COC(=O)N[C@H](C(=O)N1CCC[C@H]1c1nc2ccc([C@H]3CC[C@H](c4ccc5nc([C@@H]6CCCN6C(=O)[C@@H](NC(=O)OC)C(C)C)[nH]c5c4)N3c3ccc(Oc4ccccc4)cc3)cc2[nH]1)C(C)C
EC50 / pM: 8
--
chemical_structure: COC(=O)N[C@H](C(=O)N1CCC[C@H]1c1nc2cc([C@H]3CC[C@H](c4ccc5[nH]c([C@@H]6CCCN6C(=O)[C@@H](NC(=O)OC)C(C)C)nc5c4)N3c3cc(F)c(N4CCCCC4)c(F)c3)ccc2[nH]1)C(C)C
EC50 / pM: 7
--
chemical_structure: COC(=O)N[C@H](C(=O)N1CCC[C@H]1c1nc2ccc([C@H]3CC[C@H](c4ccc5nc([C@@H]6CCCN6C(=O)[C@@H](NC(=O)OC)C(C)C)[nH]c5c4)N3c3ccc(Cl)cc3)cc2[nH]1)C(C)C
EC50 / pM: 7
--
chemical_structure: COC(=O)N[C@H](C(=O)N1CCC[C@H]1C(=O)Nc1ccc([C@@H]2CC[C@@H](c3ccc(NC(=O)[C@@H]4CCCN4C(=O)[C@@H](NC(=O)OC)C(C)C)cc3)N2c2ccc(C(C)(C)C)cc2)cc1)C(C)C
EC50 / pM: 4.3

In the following, a different molecule is considered.
Return the recorded EC50 value; entry: COC(=O)N[C@H](C(=O)N1CCC[C@H]1c1nc2cc([C@H]3CC[C@H](c4cc5nc([C@@H]6CCCN6C(=O)[C@@H](NC(=O)OC)[C@@H](C)OC)[nH]c5cc4F)N3c3cc(F)c(N4CCC(c5ccc(F)cc5)CC4)c(F)c3)c(F)cc2[nH]1)[C@@H](C)OC
1.9
